- ASSAY INFO: Plasma pharmacokinetics, QD and BID cohorts (non-compartmental)
- Type: in vivo, human
- REPORTED CONDITIONS: human, plasma, oral, 100 mg, QD; C1D21; plasma; read-out: Tmax, Mean
- Procedure: PK parameters were calculated by standard non-compartmental methods for SLC-391. Due to the long half-life of SLC-391 compared to the dosing interval, it was not possible to calculate a number of PK parameters, including plasma half-life and rate of elimination. Accumulation was assessed from the mean accumulation ratio factor (AR factor) calculated as the repeated dose (C1D21) mean value/single dose (C1D1) mean value for the PK parameters Cmax, AUC0–12, and AUC0–last for each dose group. […]
PROPERTY: Tmax (h)
// note: answer is a bare numeric in h

Supply measured Tmax of Nc1ncc(-c2cnn(C3CCNCC3)c2)cc1-c1nnc(CC2CC2)o1 [SLC-391] in your reply.
1.9

---

- ASSAY INFO: Plasma pharmacokinetics, QD and BID cohorts (non-compartmental)
- Type: in vivo, human
- REPORTED CONDITIONS: human, plasma, oral, 200 mg, 200 mg BID, C1D21, mean, n=2, plasma; read-out: Cmax
PROPERTY: Cmax (ng/mL)
// note: answer is a bare numeric in ng/mL

Supply measured Cmax of Nc1ncc(-c2cnn(C3CCNCC3)c2)cc1-c1nnc(CC2CC2)o1 in your reply.
874
